Reference source: PubChem BioAssay AID1963873

# viability, T/C listing for each entry below
- Test system: 276233-004-R-J1-PDC KRAS spheroids with HUVEC/MSC, viability;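 note: cells exposed to agents for seven days before viability read; 100% = DMSO vehicle control wells and lower values mean fewer viable cells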
- EXPERIMENT_DESCRIPTION: Anticancer human tumor 276233-004-R-J1-PDC patient-derived colon adenocarcinoma cell line growth inhibition [KRAS2]
- STATED_CONDITIONS: second compound 0.1 µM; first compound 1 µM; active compounds read low
MEASURED_ATTRIBUTE: viability, T/C (%)

- O=C(c1cc(Cc2n[nH]c(=O)c3ccccc23)ccc1F)N1CCN(C(=O)C2CC2)CC1 + COc1cc2nc(C)nc(NC(C)c3cc(N)cc(C(F)(F)F)c3)c2cc1OC1CCOC1: 96
- COc1cc2nccc(Oc3ccc(NC(=O)C4(C(=O)Nc5ccc(F)cc5)CC4)cc3)c2cc1OC + C=CC(=O)N1CCN(c2nc(=O)n(-c3c(C)ccnc3C(C)C)c3nc(-c4c(O)cccc4F)c(F)cc23)C(C)C1: 84.7
- CCNC(=O)CC1N=C(c2ccc(Cl)cc2)c2cc(OC)ccc2-n2c(C)nnc21 (stereo not given) + CNCc1ccccc1-c1csc(C(C)Nc2nc(C)nc3cc(OC)c(OC)cc23)c1: 68.3
- O=C(c1cc(Cc2n[nH]c(=O)c3ccccc23)ccc1F)N1CCN(C(=O)C2CC2)CC1 + C=CC(=O)N1CCN(c2nc(=O)n(-c3c(C)ccnc3C(C)C)c3nc(-c4c(O)cccc4F)c(F)cc23)C(C)C1: 110
- CC1COCCN1c1cc(-c2ccnn2C)c2ccnc(-c3ccn[nH]3)c2n1 (stereo not given) + C=CC(=O)N1CCN(c2nc(=O)n(-c3c(C)ccnc3C(C)C)c3nc(-c4c(O)cccc4F)c(F)cc23)C(C)C1: 63.1
